The reported measurements were obtained from patent US20240173432A1.

system: CTG repeat in the 3′ UTR of human DMPK gene; assay: Dual-cut screening: CTG repeat excision efficiency by loss-of-signal ddPCR; type: cell-based; conditions: sgRNA pair; primary DM1 patient myoblasts; vehicle (DMSO)
value.type: Excision efficiency by ddPCR (Vehicle)
I'd appreciate a reply containing only the number, no unit.

Record summary for SluU64 + SluD73 (guide 1 GGGCTCGAAGGGTCCTTGTAGC; guide 2 CCAAAACGTGGATTGGGGTTGT; guide RNA; listed as DNA, chemistry not fully specified) : reported Excision efficiency by ddPCR (Vehicle) = 50.69

Quick note, Excision efficiency by ddPCR (Vehicle) for SluU64 + SluD34 (guide 1 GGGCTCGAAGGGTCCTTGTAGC; guide 2 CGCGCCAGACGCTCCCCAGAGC; guide RNA; listed as DNA, chemistry not fully specified) landed at 76.35

Measured Excision efficiency by ddPCR (Vehicle), SluU10 + SluD73 (guide 1 CCCGTTGGAAGACTGAGTGCCC; guide 2 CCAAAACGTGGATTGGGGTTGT; guide RNA; listed as DNA, chemistry not fully specified) : 46.13

Sample SluU10 + SluD14 (guide 1 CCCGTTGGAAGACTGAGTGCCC; guide 2 ATGGGCAAACTGCAGGCCTGGG; guide RNA; listed as DNA, chemistry not fully specified) ; Excision efficiency by ddPCR (Vehicle) observed: 43.14

Noted for SluU64 + SluD100 (guide 1 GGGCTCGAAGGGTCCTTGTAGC; guide 2 GTCCAGAGCTTTGGGCAGATGG; guide RNA; listed as DNA, chemistry not fully specified) : its Excision efficiency by ddPCR (Vehicle) reads 45.16

Kindly note the recorded Excision efficiency by ddPCR (Vehicle) for SluU10 + SluD100 (guide 1 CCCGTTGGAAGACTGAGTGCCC; guide 2 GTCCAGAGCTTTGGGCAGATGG; guide RNA; listed as DNA, chemistry not fully specified) , which is 44.65

For this substance ( SluU06 + SluD14 (guide 1 TGTCTTCGACTCCGGGGCCCCG; guide 2 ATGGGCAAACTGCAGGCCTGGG; guide RNA; listed as DNA, chemistry not fully specified) ), measured Excision efficiency by ddPCR (Vehicle) is 48.08

Documented Excision efficiency by ddPCR (Vehicle) of SluU59 + SluD100 (guide 1 CGCGGCCGGCGAACGGGGCTCG; guide 2 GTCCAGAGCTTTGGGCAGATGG; guide RNA; listed as DNA, chemistry not fully specified) : 37.61

Summary for this substance, SluU06 + SluD83 (guide 1 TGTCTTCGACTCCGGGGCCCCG; guide 2 GTGGGGACAGACAATAAATACC; guide RNA; listed as DNA, chemistry not fully specified) : Excision efficiency by ddPCR (Vehicle) is 46.13

Short answer for SluU08 + SluD48 (guide 1 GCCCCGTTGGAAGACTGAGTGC; guide 2 GAGAGCAGCGCAAGTGAGGAGG; guide RNA; listed as DNA, chemistry not fully specified) : Excision efficiency by ddPCR (Vehicle) was 42.14

Sample SluU62 + SluD73 (guide 1 AGGACCCTTCGAGCCCCGTTCG; guide 2 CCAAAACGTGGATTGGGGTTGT; guide RNA; listed as DNA, chemistry not fully specified) ; Excision efficiency by ddPCR (Vehicle) observed: 38.11

Recorded result, SluU21 + SluD06 (guide 1 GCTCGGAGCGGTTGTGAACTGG; guide 2 CCAGGCTGAGGCCCTGACGTGG; guide RNA; listed as DNA, chemistry not fully specified) , Excision efficiency by ddPCR (Vehicle): 46.6

Field Excision efficiency by ddPCR (Vehicle) (entry SluU06 + SluD06 (guide 1 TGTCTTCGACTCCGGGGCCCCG; guide 2 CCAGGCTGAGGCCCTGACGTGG; guide RNA; listed as DNA, chemistry not fully specified) ) reads 42.65

// Excision efficiency by ddPCR (Vehicle) lookup, substance = SluU59 + SluD83 (guide 1 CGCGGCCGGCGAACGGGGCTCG; guide 2 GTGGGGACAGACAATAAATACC; guide RNA; listed as DNA, chemistry not fully specified) , result: 49.18

Value of Excision efficiency by ddPCR (Vehicle) reported for the substance SluU06 + SluD18 (guide 1 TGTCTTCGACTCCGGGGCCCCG; guide 2 TGGAGGATGGAACACGGACGGC; guide RNA; listed as DNA, chemistry not fully specified) is 45.61

The measured Excision efficiency by ddPCR (Vehicle) associated with SluU62 + SluD100 (guide 1 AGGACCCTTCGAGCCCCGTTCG; guide 2 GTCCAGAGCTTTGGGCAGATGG; guide RNA; listed as DNA, chemistry not fully specified) reads 37.11

Excision efficiency by ddPCR (Vehicle) reported for this substance SluU21 + SluD83 (guide 1 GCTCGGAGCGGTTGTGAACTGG; guide 2 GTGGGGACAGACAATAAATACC; guide RNA; listed as DNA, chemistry not fully specified) : 37.42

Value of Excision efficiency by ddPCR (Vehicle) reported for the substance SluU21 + SluD18 (guide 1 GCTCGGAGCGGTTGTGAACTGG; guide 2 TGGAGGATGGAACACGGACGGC; guide RNA; listed as DNA, chemistry not fully specified) is 45.61

The measured Excision efficiency by ddPCR (Vehicle) associated with SluU08 + SluD83 (guide 1 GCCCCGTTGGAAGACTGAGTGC; guide 2 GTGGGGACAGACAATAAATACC; guide RNA; listed as DNA, chemistry not fully specified) reads 45.64
